Biological target: EPHB1 (UniProt P54762)
Sequence (P54762 whole entry, looked up): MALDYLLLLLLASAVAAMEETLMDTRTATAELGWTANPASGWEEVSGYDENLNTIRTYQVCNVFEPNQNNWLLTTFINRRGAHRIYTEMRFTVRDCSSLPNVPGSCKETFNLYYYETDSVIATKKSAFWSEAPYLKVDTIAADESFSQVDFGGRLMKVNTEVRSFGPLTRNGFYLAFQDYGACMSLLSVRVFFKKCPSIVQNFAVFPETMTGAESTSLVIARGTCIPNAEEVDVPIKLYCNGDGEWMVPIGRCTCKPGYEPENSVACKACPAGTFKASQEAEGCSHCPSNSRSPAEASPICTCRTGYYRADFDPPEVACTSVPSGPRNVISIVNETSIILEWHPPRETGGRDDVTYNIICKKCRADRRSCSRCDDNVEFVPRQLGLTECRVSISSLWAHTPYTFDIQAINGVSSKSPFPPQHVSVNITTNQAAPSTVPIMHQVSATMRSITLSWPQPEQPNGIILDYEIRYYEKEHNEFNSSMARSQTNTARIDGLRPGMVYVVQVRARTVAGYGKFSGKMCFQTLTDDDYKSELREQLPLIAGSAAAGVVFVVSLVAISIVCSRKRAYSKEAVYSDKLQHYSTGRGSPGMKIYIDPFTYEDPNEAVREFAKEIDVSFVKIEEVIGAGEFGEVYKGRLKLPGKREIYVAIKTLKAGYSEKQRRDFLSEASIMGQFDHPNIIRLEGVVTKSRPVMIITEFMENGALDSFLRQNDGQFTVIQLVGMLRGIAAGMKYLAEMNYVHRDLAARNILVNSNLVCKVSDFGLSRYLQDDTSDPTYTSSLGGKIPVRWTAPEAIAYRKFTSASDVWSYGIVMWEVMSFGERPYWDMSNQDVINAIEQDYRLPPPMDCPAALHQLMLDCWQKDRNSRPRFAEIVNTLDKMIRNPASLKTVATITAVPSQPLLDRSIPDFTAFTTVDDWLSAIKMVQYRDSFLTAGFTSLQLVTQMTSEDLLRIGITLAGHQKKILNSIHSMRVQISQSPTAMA
Test: phosphorylation enrichment, bacterial display (enrichment ratio); higher = better substrate or ligand; peptides without Tyr show the background;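 further: 11-residue human phosphosite peptides and single-mutation variants displayed on the E. coli surface, counted by deep sequencing, each peptide's frequency after selection divided by its frequency in the unselected input library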;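 further: frequency after pTyr selection over input frequency; kinase dosed for 20-30% of maximal phosphorylation in three min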
What phosphorylation enrichment was measured for each of the following?
Simply state the number, no unit and no words.

Input: Answer with the recorded phosphorylation enrichment of DQIDTYELSGA [DNM1_Y354_G359A] only.
Output: 0.545

Input: Answer with the recorded phosphorylation enrichment of KLPFPYDDPFS [GPX2_Y127_YF] only.
Output: 0.587

Input: Answer with the recorded phosphorylation enrichment of IKKLIYVYLVI [JAGN1_Y42_H44Y] only.
Output: 0.466

Input: Answer with the recorded phosphorylation enrichment of IAKNPYDPPGR only.
Output: 0.363

Input: Answer with the recorded phosphorylation enrichment of LNYNEYFRDLN [HPRT1_Y198_D194N] only.
Output: 1.4

Input: Answer with the recorded phosphorylation enrichment of SYVVRYNQPRV [GRIN2D_Y736_M733V] only.
Output: 0.478

Input: Answer with the recorded phosphorylation enrichment of PIQLFYTRRNT [GHR_Y86] only.
Output: 0.766

Input: Answer with the recorded phosphorylation enrichment of CTTIHYNNMCN [TP53_Y234_Y236N] only.
Output: 0.455

Input: Answer with the recorded phosphorylation enrichment of SIKNKYVTALY [KCNH2_Y611_D609N] only.
Output: 0.349

Input: Answer with the recorded phosphorylation enrichment of ARSMEYLAEQK [MST1R_Y1198] only.
Output: 0.488

Input: Answer with the recorded phosphorylation enrichment of LGGSPYPGVPV [FGFR1_Y701] only.
Output: 0.493

Input: Answer with the recorded phosphorylation enrichment of TVINKYQGKLF [HGD_Y249] only.
Output: 0.336

Input: Answer with the recorded phosphorylation enrichment of LSGVIYVILGK [PMP22_Y153_R157G] only.
Output: 0.93

Input: Answer with the recorded phosphorylation enrichment of YYHCTYKQRMI [CLEC12A_Y242_K244Q] only.
Output: 0.63

Input: Answer with the recorded phosphorylation enrichment of DLRGIYQKLVI only.
Output: 1.81

Input: Answer with the recorded phosphorylation enrichment of REQREYLDQLN [CCDC88B_Y1277] only.
Output: 0.666

Input: Answer with the recorded phosphorylation enrichment of RFLERYIFNRQ [HLA-DPB1_Y57_E62Q_YF] only.
Output: 0.603

Input: Answer with the recorded phosphorylation enrichment of TNYSLYLRSLE [MTM1_Y71_R69S] only.
Output: 0.722

Input: Answer with the recorded phosphorylation enrichment of TGDFGYRTPGF [TNS2_Y668_A670T_YF] only.
Output: 0.48

Input: Answer with the recorded phosphorylation enrichment of FSQNIYIQNRN [PKP2_Y631_YF] only.
Output: 0.396

Input: Answer with the recorded phosphorylation enrichment of KSVSQYLEMDK [CAGE1_Y438] only.
Output: 0.422

Input: Answer with the recorded phosphorylation enrichment of GDFSRYDEGSG [RECQL5_Y484] only.
Output: 0.523

Input: Answer with the recorded phosphorylation enrichment of SWVVPYEPPEV [TP53_Y220_V216W] only.
Output: 0.553

Input: Answer with the recorded phosphorylation enrichment of ASMAKYFASGI [ACADSB_Y372_E376G_YF] only.
Output: 0.339

Input: Answer with the recorded phosphorylation enrichment of ALTDNYMFVVI [HAGH_Y61_L64V_YF] only.
Output: 11.5

Input: Answer with the recorded phosphorylation enrichment of SLLTDYSPQLQ [OTC_Y345] only.
Output: 0.459

Input: Answer with the recorded phosphorylation enrichment of IVGRLYRLLTE [SETX_Y1978_L1976R] only.
Output: 0.481

Input: Answer with the recorded phosphorylation enrichment of KFRREYILSLE [GPC3_Y299_W296R_YF] only.
Output: 0.551

Input: Answer with the recorded phosphorylation enrichment of ALPVFYAATIA [SLC20A2_Y187] only.
Output: 0.905

Input: Answer with the recorded phosphorylation enrichment of DLGIQYKVLKP [CTNNA1_Y177_A179V] only.
Output: 0.462

Input: Answer with the recorded phosphorylation enrichment of VIERSYTSADG [DHCR7_Y382_C380R] only.
Output: 0.388

Input: Answer with the recorded phosphorylation enrichment of GEVKAYGAGLL [TH_Y419] only.
Output: 0.309

Input: Answer with the recorded phosphorylation enrichment of NLNGKYFKPRA [ANGPTL3_Y417_N418Y_YF] only.
Output: 0.538

Input: Answer with the recorded phosphorylation enrichment of STLEVYRCHPP [IL21R_Y317_S318R] only.
Output: 0.758

Input: Answer with the recorded phosphorylation enrichment of GIMEEYQLPFF [BMPR1A_Y453_V450M_YF] only.
Output: 0.648

Input: Answer with the recorded phosphorylation enrichment of DGYTDYAEFAK [MCFD2_Y138_I136T] only.
Output: 0.829

Input: Answer with the recorded phosphorylation enrichment of NNHGNYIVRLG [ETFDH_Y172] only.
Output: 0.548

Input: Answer with the recorded phosphorylation enrichment of NVFGNYNNQSS [HNRNPA1_Y318_D314V] only.
Output: 0.421

Input: Answer with the recorded phosphorylation enrichment of QGCGIYKDYYR [PLA2G2D_Y82_S80G] only.
Output: 1.04

Input: Answer with the recorded phosphorylation enrichment of MSSHHYDFKKF [ZNF445_Y428_YF] only.
Output: 0.533

Input: Answer with the recorded phosphorylation enrichment of LYSDHYSPSGR [TMPRSS12_Y23] only.
Output: 4.19

Input: Answer with the recorded phosphorylation enrichment of AGQEDCDRLRP [CDC42_Y64_Y64C] only.
Output: 0.552

Input: Answer with the recorded phosphorylation enrichment of VDDQIYFFRKP [PBRM1_Y1289_E1287Q_YF] only.
Output: 0.961

Input: Answer with the recorded phosphorylation enrichment of QRKPSYNQLAS [BRCA2_Y71] only.
Output: 0.344

Input: Answer with the recorded phosphorylation enrichment of GPQGVYSNKLV [PTPN14_Y506] only.
Output: 0.417

Input: Answer with the recorded phosphorylation enrichment of DDPRRYQKYGY [OAS1_Y362] only.
Output: 0.368

Input: Answer with the recorded phosphorylation enrichment of YSMGCYEIYLG [HMGCL_Y198_S201Y] only.
Output: 4.78

Input: Answer with the recorded phosphorylation enrichment of HICTAYELVLA [DHCR24_Y190] only.
Output: 0.891

Input: Answer with the recorded phosphorylation enrichment of KVDKEYEVGVR [GHR_Y226_R229G] only.
Output: 0.434

Input: Answer with the recorded phosphorylation enrichment of CNPLRYPTIMI [OR6K6_Y160] only.
Output: 0.49

Input: Answer with the recorded phosphorylation enrichment of RTVPLYESPRK [DDB1_Y718] only.
Output: 20.7

Input: Answer with the recorded phosphorylation enrichment of KILAKYLLETS [NAMPT_Y175] only.
Output: 0.431

Input: Answer with the recorded phosphorylation enrichment of DDLTDYLMKIL [ACTA1_Y190_R185D] only.
Output: 0.476
